Test system: OVCAR-8 ovarian
measurement notes: NCI-60 one-dose screen, 48 h
experimental parameters: 10 µM unless noted
This is part of a sample that, as a whole, favours compounds with a hit. Of some 83,000 tested, about 20% had one in any assay. Active and inactive are the calls of the source. The calls were made as follows: active = growth percent below 10; inactive = the rest.
Give one outcome, nothing more. List: true (1) for active, false (0) for inactive

compound | class name
O=C(Cn1c2ccccc2c2ccncc21)N/N=C/c1c[nH]c2ccccc12 | false (0)
S=c1n(CNc2ccc(Cl)nn2)nc(-c2cc(Cl)cc(Cl)c2Cl)n1/N=C/c1ccc(Cl)cc1 | false (0)
COc1ccc(-c2coc3c(CO)c(O)ccc3c2=O)cc1 | false (0)

Ask | What was the test verdict on Cc1cc(NC(=O)c2cccc(C(F)(F)F)c2)ccc1-n1ccc2c(NC(=O)c3ccccc3)nccc21 ?
Reply | false (0)

Ask | What was the test verdict on CC(=O)CC/C=C(\C)[C@H](O)[C@H](C)C(=O)O[C@H]1C[C@H](C)C=C2C=C[C@@]3(C)O[C@@H](O)CC(=O)[C@]3(C)[C@H]21 ?
Reply | true (1)

* * *

System: HCT-15 colon
measurement notes: NCI-60 one-dose screen, 48 h
experimental parameters: 10 µM unless noted
This is part of a sample that, as a whole, favours compounds with a hit. Of some 83,000 tested, about 20% had one in any assay. Activity calls are given as the source filed them. How the source made its calls: active means growth percent below 10; inactive means the rest.
Give one outcome, nothing more. List: true = active, false = inactive

Before answering, review these 3 worked examples.
compound | class name
COc1ccc(/C=C2/C(=O)Nc3cc(Cl)c(-c4csc(N)n4)cc32)cc1 | false
O=C(O)c1ccc2nc(-c3ccc(OCCCCCOc4ccc(-c5nc6ccc(C(=O)O)cc6[nH]5)cc4)cc3)[nH]c2c1 | false
CC(NCCC(c1ccccc1)c1ccccc1)c1ccccc1 (stereo not given) | false

Ask | What was the test verdict on O=C1COc2ccccc2C(=O)N1CCCCNc1ccccc1 ?
Reply | false

Ask | What was the test verdict on CCOC(=O)c1noc2c1CCc1cn(Cc3cc(OC)cc(OC)c3)cc1-2 ?
Reply | false

Ask | What was the test verdict on O=C1c2ccccc2OC=C(c2ccccc2)N1CCCCN1CCCCC1 ?
Reply | false

Ask | What was the test verdict on COC(=O)c1oc2c(C(=O)/C=C/c3ccc(OC)cc3)c(OCCN3CCOCC3)ccc2c1C ?
Reply | true

Ask | What was the test verdict on C/C(=N\N=C1/SCC(=O)N1c1ccccc1)c1ccco1 ?
Reply | false

Ask | What was the test verdict on COc1ccc(/C=C/C(=O)/C=C(/C=C/c2ccc(OC)c(OC)c2OC)OB(F)F)c(OC)c1OC ?
Reply | true

Ask | What was the test verdict on CCN(CC)CCN1C(=O)c2c(c3c4ccccc4[nH]c3c3[nH]c4ccccc4c23)C1=O ?
Reply | false

* * *

System: PC-3 prostate
measurement notes: NCI-60 one-dose screen, 48 h (100 = growth as untreated, 0 = no growth, -100 = all killed)
experimental parameters: 10 µM unless noted
Compounds without any hit were thinned out: in the full panel of roughly 83,000, 20% have a hit. The source made the active and inactive calls. The calls were made as follows: active = growth percent below 10; inactive = the rest.
assay metric: growth

compound | test target | growth
O=C(O)c1ccc2nc(-c3ccc(OCCCCCOc4ccc(-c5nc6ccc(C(=O)O)cc6[nH]5)cc4)cc3)[nH]c2c1 | PC-3 prostate | 90% (inactive)
Cc1cn(-c2nc3c(c(NCc4ccccc4)n2)COCC3)c2cccc(C(N)=O)c12 | PC-3 prostate | 83.8% [0.5 µM] (inactive)
COc1ccc(Cn2cc(COc3ccc4c5ccnc(C)c5n(CCCc5ccccc5)c4c3)nn2)cc1 | PC-3 prostate | 74.8% (inactive)

Form: compound = CN(C)c1ccc(/C=N/n2c(-c3cc(F)c(Cl)cc3Cl)nn(CN3CCOCC3)c2=S)cc1 ; growth = 103% (inactive)

Form: compound = CC(C)(C)C(=O)Nc1nc2c(s1)CCc1ccn(S(=O)(=O)c3ccccc3)c1-2 ; growth = 81.1% (inactive)

Form: compound = COc1ccc(-c2coc3c(CO)c(O)ccc3c2=O)cc1 ; growth = -27.7% (active)

Form: compound = COc1ccc(NC(=O)Nc2ccc(-c3ccc(OC)c(OC)c3)nc2C)cc1 ; growth = 81.4% (inactive)

Form: compound = NN=C(c1ccc(Cl)cc1)c1ccc(Cl)cc1 ; growth = 101% (inactive)

Form: compound = O=C1C(SCCO)=C(SCCO)C(=O)N1c1ccc(-c2ccccc2)cc1 ; growth = 93.3% (inactive)

src = PubChem BioAssay (NCI)
